This collection of values is drawn from paper PMC10238757.

# protocol_description: Multiple ascending dose
# Type: in vivo, human
# conditions: human, plasma, oral, 500 mg, C max, ng/mL GM (%CVb), 500 mg QW, Day 15
measurement_label: Cmax (ng/mL)
Entry rule: numbers only, all in ng/mL.

Which Cmax value belongs to C=C(C)[C@@H]1CC[C@]2(NCCN3CCS(=O)(=O)CC3)CC[C@]3(C)[C@H](CC[C@@H]4[C@@]5(C)CC=C(C6=CC[C@@](COc7ncccc7C#N)(C(=O)O)CC6)C(C)(C)[C@@H]5CC[C@]43C)[C@@H]12 ? 1860

###

# protocol_description: Single ascending dose
# Type: in vivo, human
# conditions: human, plasma, oral, 320 mg
measurement_label: Cmax (ng/mL)
Entry rule: numbers only, all in ng/mL.

Which Cmax value belongs to C=C(C)[C@@H]1CC[C@]2(NCCN3CCS(=O)(=O)CC3)CC[C@]3(C)[C@H](CC[C@@H]4[C@@]5(C)CC=C(C6=CC[C@@](COc7ncccc7C#N)(C(=O)O)CC6)C(C)(C)[C@@H]5CC[C@]43C)[C@@H]12 ? 1010

###

# protocol_description: Multiple ascending dose
# Type: in vivo, human
# conditions: human, plasma, oral, 25 mg, C trough, ng/mL GM (%CVb), 25 mg QD, Day 1, 24 h
measurement_label: concentration at 24 h (ng/mL)
Entry rule: numbers only, all in ng/mL.

Which concentration at 24 h value belongs to C=C(C)[C@@H]1CC[C@]2(NCCN3CCS(=O)(=O)CC3)CC[C@]3(C)[C@H](CC[C@@H]4[C@@]5(C)CC=C(C6=CC[C@@](COc7ncccc7C#N)(C(=O)O)CC6)C(C)(C)[C@@H]5CC[C@]43C)[C@@H]12 [GSK'937] ? 89.3

###

# protocol_description: Single ascending dose
# Format: in vivo, human
# conditions: human, plasma, oral, 30 mg
measurement_label: Cmax (ng/mL)
Entry rule: numbers only, all in ng/mL.

Which Cmax value belongs to C=C(C)[C@@H]1CC[C@]2(NCCN3CCS(=O)(=O)CC3)CC[C@]3(C)[C@H](CC[C@@H]4[C@@]5(C)CC=C(C6=CC[C@@](COc7ncccc7C#N)(C(=O)O)CC6)C(C)(C)[C@@H]5CC[C@]43C)[C@@H]12 ? 127

###

# protocol_description: Multiple ascending dose
# Format: in vivo, human
# conditions: human, plasma, oral, 100 mg, C max, ng/mL GM (%CVb), 100 mg QD, Day 1
measurement_label: Cmax
The reply should consist of the numeric value with the unit placed after it.

Which Cmax value belongs to C=C(C)[C@@H]1CC[C@]2(NCCN3CCS(=O)(=O)CC3)CC[C@]3(C)[C@H](CC[C@@H]4[C@@]5(C)CC=C(C6=CC[C@@](COc7ncccc7C#N)(C(=O)O)CC6)C(C)(C)[C@@H]5CC[C@]43C)[C@@H]12 [GSK'937] ? 375 ng/mL

###

# protocol_description: Multiple ascending dose
# Type: in vivo, human
# conditions: human, plasma, oral
measurement_label: half-life

Which half-life value belongs to C=C(C)[C@@H]1CC[C@]2(NCCN3CCS(=O)(=O)CC3)CC[C@]3(C)[C@H](CC[C@@H]4[C@@]5(C)CC=C(C6=CC[C@@](COc7ncccc7C#N)(C(=O)O)CC6)C(C)(C)[C@@H]5CC[C@]43C)[C@@H]12 ? 72.2 to 85.8 h

###

# protocol_description: Multiple ascending dose
# Format: in vivo, human
# conditions: human, plasma, oral, 100 mg, C max, ng/mL GM (%CVb), 100 mg QD, Day 18
measurement_label: Cmax (ng/mL)
Entry rule: numbers only, all in ng/mL.

Which Cmax value belongs to C=C(C)[C@@H]1CC[C@]2(NCCN3CCS(=O)(=O)CC3)CC[C@]3(C)[C@H](CC[C@@H]4[C@@]5(C)CC=C(C6=CC[C@@](COc7ncccc7C#N)(C(=O)O)CC6)C(C)(C)[C@@H]5CC[C@]43C)[C@@H]12 [GSK'937] ? 2750

###

# protocol_description: Single ascending dose
# Type: in vivo, human
# conditions: human, plasma, oral, 320 mg, t max, h median (range), SAD 320 mg
measurement_label: Tmax
The reply should consist of the numeric value with the unit placed after it.

Which Tmax value belongs to C=C(C)[C@@H]1CC[C@]2(NCCN3CCS(=O)(=O)CC3)CC[C@]3(C)[C@H](CC[C@@H]4[C@@]5(C)CC=C(C6=CC[C@@](COc7ncccc7C#N)(C(=O)O)CC6)C(C)(C)[C@@H]5CC[C@]43C)[C@@H]12 ? 6.99 h

###

# protocol_description: Multiple ascending dose
# Type: in vivo, human
# conditions: human, plasma, oral, 100 mg, C trough, ng/mL GM (%CVb), 100 mg QD, Day 14, 24 h
measurement_label: concentration at 24 h (ng/mL)
Entry rule: numbers only, all in ng/mL.

Which concentration at 24 h value belongs to C=C(C)[C@@H]1CC[C@]2(NCCN3CCS(=O)(=O)CC3)CC[C@]3(C)[C@H](CC[C@@H]4[C@@]5(C)CC=C(C6=CC[C@@](COc7ncccc7C#N)(C(=O)O)CC6)C(C)(C)[C@@H]5CC[C@]43C)[C@@H]12 ? 2420

###

# protocol_description: Single ascending dose
# Assay type: in vivo, human
# conditions: human, plasma, oral, 10 mg, t max, h median (range), SAD 10 mg
measurement_label: Tmax (h)
Entry rule: numbers only, all in h.

Which Tmax value belongs to C=C(C)[C@@H]1CC[C@]2(NCCN3CCS(=O)(=O)CC3)CC[C@]3(C)[C@H](CC[C@@H]4[C@@]5(C)CC=C(C6=CC[C@@](COc7ncccc7C#N)(C(=O)O)CC6)C(C)(C)[C@@H]5CC[C@]43C)[C@@H]12 ? 6.98

###

# protocol_description: Single ascending dose
# Format: in vivo, human
# conditions: human, plasma, oral, 800 mg, t 1/2 GM (%CVb), SAD 800 mg
measurement_label: half-life (h)
Entry rule: numbers only, all in h.

Which half-life value belongs to C=C(C)[C@@H]1CC[C@]2(NCCN3CCS(=O)(=O)CC3)CC[C@]3(C)[C@H](CC[C@@H]4[C@@]5(C)CC=C(C6=CC[C@@](COc7ncccc7C#N)(C(=O)O)CC6)C(C)(C)[C@@H]5CC[C@]43C)[C@@H]12 ? 67.4

###

# protocol_description: Multiple ascending dose
# Format: in vivo, human
# conditions: human, plasma, oral, 500 mg, C max, ng/mL GM (%CVb), 500 mg QW, Day 1
measurement_label: Cmax (ng/mL)
Entry rule: numbers only, all in ng/mL.

Which Cmax value belongs to C=C(C)[C@@H]1CC[C@]2(NCCN3CCS(=O)(=O)CC3)CC[C@]3(C)[C@H](CC[C@@H]4[C@@]5(C)CC=C(C6=CC[C@@](COc7ncccc7C#N)(C(=O)O)CC6)C(C)(C)[C@@H]5CC[C@]43C)[C@@H]12 ? 1110

###

# protocol_description: Multiple ascending dose
# Type: in vivo, human
# conditions: human, plasma, oral, 50 mg, C trough, ng/mL GM (%CVb), 50 mg QD, Day 14, 24 h
measurement_label: concentration at 24 h
The reply should consist of the numeric value with the unit placed after it.

Which concentration at 24 h value belongs to C=C(C)[C@@H]1CC[C@]2(NCCN3CCS(=O)(=O)CC3)CC[C@]3(C)[C@H](CC[C@@H]4[C@@]5(C)CC=C(C6=CC[C@@](COc7ncccc7C#N)(C(=O)O)CC6)C(C)(C)[C@@H]5CC[C@]43C)[C@@H]12 [GSK'937] ? 990 ng/mL

###

# protocol_description: Multiple ascending dose
# Assay type: in vivo, human
# conditions: human, plasma, oral, 500 mg, C trough, ng/mL GM (%CVb), 500 mg QW, Day 1, 168 h
measurement_label: concentration at 168 h (ng/mL)
Entry rule: numbers only, all in ng/mL.

Which concentration at 168 h value belongs to C=C(C)[C@@H]1CC[C@]2(NCCN3CCS(=O)(=O)CC3)CC[C@]3(C)[C@H](CC[C@@H]4[C@@]5(C)CC=C(C6=CC[C@@](COc7ncccc7C#N)(C(=O)O)CC6)C(C)(C)[C@@H]5CC[C@]43C)[C@@H]12 ? 251

###

# protocol_description: Single ascending dose
# Assay type: in vivo, human
# conditions: human, plasma, oral, 640 mg, t 1/2 GM (%CVb), SAD 640 mg
measurement_label: half-life (h)
Entry rule: numbers only, all in h.

Which half-life value belongs to C=C(C)[C@@H]1CC[C@]2(NCCN3CCS(=O)(=O)CC3)CC[C@]3(C)[C@H](CC[C@@H]4[C@@]5(C)CC=C(C6=CC[C@@](COc7ncccc7C#N)(C(=O)O)CC6)C(C)(C)[C@@H]5CC[C@]43C)[C@@H]12 [GSK'937] ? 82.6
